test system: Escherichia coli TOP10; assay: shrunken log2 fold change of peptide-encoding DNA abundance (4.5 h post-induction vs induction); higher = less antimicrobial activity (less host growth inhibition); settings: time post-induction: 4.5 h; library: site-saturation at positions 5, 18, 19, 20
Measure name: shrunken log2 fold change
Lab note: write the figure by itself, no unit.

Reference set (10 entries):
chain=RRIRGRPPRLPRPRPRPAVVPRP value=0.488
chain=RRIRIRPPRLPRPRPRPEGNPRP value=0.0775
chain=RRIRDRPPRLPRPRPRPEHKPRP value=0.0114
chain=RRIRNRPPRLPRPRPRPYCCPRP value=-0.564
chain=RRIRCRPPRLPRPRPRPICPPRP value=-0.148
chain=RRIRSRPPRLPRPRPRPIKAPRP value=0.0326
chain=RRIRCRPPRLPRPRPRPNDPPRP value=0.0328
chain=RRIRARPPRLPRPRPRPNWQPRP value=-0.0264
chain=RRIRERPPRLPRPRPRPIEYPRP value=-0.207
chain=RRIRDRPPRLPRPRPRPLKNPRP value=0.0245

**Query** Short answer please: shrunken log2 fold change, Escherichia coli TOP10, entry RRIRWRPPRLPRPRPRPENRPRP
**Result** -0.0139

**Query** Now this one: RRIRERPPRLPRPRPRPVCEPRP
**Result** 0.162

**Query** Also RRIRSRPPRLPRPRPRPGSWPRP , if possible.
**Result** 0.605

**Query** Further, for RRIRDRPPRLPRPRPRPDAQPRP ?
**Result** 1.21

**Query** Subsequent entry: RRIRWRPPRLPRPRPRPFAQPRP
**Result** -0.0369

###

# key: entry, value: shrunken log2 fold change
tested on: Escherichia coli TOP10; assay: shrunken log2 fold change of peptide-encoding DNA abundance (4.5 h post-induction vs induction); higher = less antimicrobial activity (less host growth inhibition); details: time post-induction: 4.5 h; library: site-saturation at positions 5, 18, 19, 20

**Query** Please look up its shrunken log2 fold change: RRIRTRPPRLPRPRPRPNWDPRP
**Result** 0.00303

**Query** Queued: RRIRLRPPRLPRPRPRPAYPPRP
**Result** 0.283

**Query** Cool, now RRIRARPPRLPRPRPRPIQFPRP
**Result** 0.166

**Query** Do the same for RRIRNRPPRLPRPRPRPATEPRP please
**Result** 0.00868

###

// reported shrunken log2 fold change per item
tested on: Escherichia coli TOP10; experiment: shrunken log2 fold change of peptide-encoding DNA abundance (4.5 h post-induction vs induction); higher = less antimicrobial activity (less host growth inhibition); conditions: time post-induction: 4.5 h; library: site-saturation at positions 5, 18, 19, 20;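 also: peptides expressed intracellularly from a pBAD plasmid library in pooled LB shake-flask culture, induced with 0.3% L-arabinose, DNA abundance read by NGS, three biological replicates, DESeq2 with apeglm shrinkage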
Reply with the value as a number alone.

chain=RRIRGRPPRLPRPRPRPLYFPRP measure_name="shrunken log2 fold change" value=-0.131

**Query** May I ask what shrunken log2 fold change has been recorded for RRIRSRPPRLPRPRPRPSCYPRP ?
**Result** -0.511

**Query** Try the sequence RRIRNRPPRLPRPRPRPMTQPRP
**Result** -0.249

**Query** Note, next up: RRIRVRPPRLPRPRPRPNMKPRP
**Result** -0.524

**Query** Please give the result for RRIRTRPPRLPRPRPRPLNWPRP too.
**Result** -0.246

**Query** Next record, please: RRIRYRPPRLPRPRPRPSAVPRP
**Result** -0.175

**Query** Field entry: RRIRGRPPRLPRPRPRPGWGPRP
**Result** 0.73

**Query** Param item: RRIRWRPPRLPRPRPRPYDDPRP
**Result** -0.321

**Query** Please give the result for RRIRARPPRLPRPRPRPTNMPRP too.
**Result** -0.275

**Query** Moving on to the next sequence: RRIRLRPPRLPRPRPRPSISPRP
**Result** -0.655
